Measured cytotoxicity at 10 µM accompanies every entry in the list below.
Assay: Toxicity liver stage against HepG2, at 10uM
Format: cell-based
Design: test concentration 10 uM, cell line HepG2-A16-CD81EGFP
Settings: human, HepG2-A16-CD81EGFP cells; read-out: INHIBITION
API: value field is a number in %; no unit string.

See these solved cases before continuing.
compound: O=C(O)[C@@H]1CCN(C(=O)c2ccccn2)[C@@H]1c1ccc(F)cc1
cytotoxicity at 10 µM / %: 4.16
--
compound: O=C(Cc1noc2ccccc12)N1CCCC1c1noc(C2CC2)n1 (stereo unspecified)
cytotoxicity at 10 µM / %: 61.5

Query: Give its cytotoxicity at 10 µM value. Item: CCOCCN1CCN(C=C2NN=C(c3occc3C)O2)CC1CC (stereo unspecified)
Reply: -50.3

Query: Give its cytotoxicity at 10 µM value. Item: c1coc(-c2nc(CNC3CCC4(CCNCC4)CC3)no2)c1
Reply: -15.8

Query: Give its cytotoxicity at 10 µM value. Item: Cc1ccc(NS(=O)(=O)c2cnn(-c3ccccc3)c2)c(C(=O)O)c1
Reply: -3.11

Query: Give its cytotoxicity at 10 µM value. Item: CC(C)NS(=O)(=O)c1cc(C(=O)O)cc(-c2ccccc2CO)c1
Reply: 0.555

Query: Give its cytotoxicity at 10 µM value. Item: CC(=O)N1CCOCC2(CN(Cc3ccccn3)CCO2)C1 (stereo unspecified)
Reply: -3.28

* * *

Measured cytotoxicity at 10 µM accompanies every entry in the list below.
Assay: Toxicity liver stage against HepG2, at 10uM
Format: cell-based
Parameters: test concentration 10 uM, cell line HepG2-A16-CD81EGFP
Settings: human, HepG2-A16-CD81EGFP cells; read-out: INHIBITION
API: value field is a number in %; no unit string.

compound: COc1cccc(CN2CCN(c3ccc4nncn4n3)C(C)C2)c1 (stereo unspecified)
cytotoxicity at 10 µM [%]: 38.3
//
compound: COc1ccccc1N1CCN(C(=O)CSC(C)C)C(C)C1 (stereo unspecified)
cytotoxicity at 10 µM [%]: -3.97

Query: Give its cytotoxicity at 10 µM value. Item: CCc1cc(=O)[nH]c(-c2ccc(NCCC(C)O)nc2)n1 (stereo unspecified)
Reply: -127

Query: Give its cytotoxicity at 10 µM value. Item: COC(=O)c1cccc(S(=O)(=O)NC(=O)CC2CCCC2)c1
Reply: -9.68

Query: Give its cytotoxicity at 10 µM value. Item: CNC(=O)CCCNc1cc(C)nc2cc(C)nn12
Reply: -5.97

Query: Give its cytotoxicity at 10 µM value. Item: c1cn(Cc2nnc(C3CCN(C4CCNCC4)CC3)n2C2CC2)cn1
Reply: 1.74

Query: Give its cytotoxicity at 10 µM value. Item: O=C(CCCc1cn[nH]c1)N1C[C@@H](CN2CCOCC2)[C@@H](CO)C1
Reply: -15.8

Query: Give its cytotoxicity at 10 µM value. Item: CCc1nnc(CN(C)C[C@@H]2CCCN3CCCC[C@H]23)o1
Reply: 1.52

* * *

Test: Toxicity liver stage against HepG2, at 10uM
Format: cell-based
Set-up: test concentration 10 uM, cell line HepG2-A16-CD81EGFP
Conditions: human, HepG2-A16-CD81EGFP cells; read-out: INHIBITION
Measured cytotoxicity at 10 µM accompanies every entry in the list below.
API: value field is a number in %; no unit string.

compound: CC(C)N(C)Cc1cncc2c1CCN(CC1CC1)C2
cytotoxicity at 10 µM [%]: -102

Query: Give its cytotoxicity at 10 µM value. Item: Cc1nccn1C1CCCN(C(=O)c2ccc3c(c2)nc(C)n3C)C1 (configuration not stated)
Reply: -9.75

Query: Give its cytotoxicity at 10 µM value. Item: O=C(Cc1cccc(F)c1)N1C[C@H]2CN(Cc3ccccn3)C[C@H]2C1
Reply: -2.25

Query: Give its cytotoxicity at 10 µM value. Item: CC(NC(=O)c1nc(=O)[nH][nH]1)c1ccc(OCC2CC2)c(F)c1 (configuration not stated)
Reply: -5.75

* * *

Assay: Toxicity liver stage against HepG2, at 10uM
Format: cell-based
Parameters: test concentration 10 uM, cell line HepG2-A16-CD81EGFP
Settings: human, HepG2-A16-CD81EGFP cells; read-out: INHIBITION
Measured cytotoxicity at 10 µM accompanies every entry in the list below.
API: value field is a number in %; no unit string.

compound: CCN1CCCCC1C(=O)Nc1cccc(-c2nnc[nH]2)c1 (centres undefined)
quantity name: cytotoxicity at 10 µM
value: 4.03
--
compound: Cc1cnn(CC2CCN(CC(O)Cn3cccn3)CC2)c1 (centres undefined)
quantity name: cytotoxicity at 10 µM
value: -1.66

Query: Give its cytotoxicity at 10 µM value. Item: Fc1ccc(Cn2ncc3c2CN(c2ncccn2)C3)cc1
Reply: 1.5

Query: Give its cytotoxicity at 10 µM value. Item: CCN1CCOC(CNCc2ccccc2OCc2ccccn2)C1 (centres undefined)
Reply: -10.1

* * *

Test: Toxicity liver stage against HepG2, at 10uM
Assay type: cell-based
Set-up: test concentration 10 uM, cell line HepG2-A16-CD81EGFP
Details: human, HepG2-A16-CD81EGFP cells; read-out: INHIBITION
quantity name: cytotoxicity at 10 µM (%)
API: value field is a number in %; no unit string.

See these solved cases before continuing.
molecule: Cc1ccc2c(c1)N(C(=O)c1c[nH]c(C)cc1=O)CC(C)O2 (stereo not drawn)
value: 23.6
//
molecule: CCCc1noc(C2CCCCN2C(=O)C2CCCC2)n1 (stereo not drawn)
value: -35.8

Query: Give its cytotoxicity at 10 µM value. Item: Cc1nc(CCCC(=O)Nc2cccc(N3CCNC3=O)c2)cs1
Reply: -2.26

* * *

Assay: Toxicity liver stage against HepG2, at 10uM
Type: cell-based
Set-up: test concentration 10 uM, cell line HepG2-A16-CD81EGFP
Settings: human, HepG2-A16-CD81EGFP cells; read-out: INHIBITION
Measured cytotoxicity at 10 µM accompanies every entry in the list below.
API: value field is a number in %; no unit string.

molecule: CCCOc1ccc(C(=O)N2C[C@@H](CN3CCCC3)[C@@H](CO)C2)cc1Cl
cytotoxicity at 10 µM / %: -5.84
--
molecule: CC(=O)NC(C)C1=CCCN(Cc2ccc(C(=O)O)cc2)C1 (configuration not stated)
cytotoxicity at 10 µM / %: -12.1

// moving on: another record for cytotoxicity at 10 µM
Query: Give its cytotoxicity at 10 µM value. Item: Cc1cc2n(n1)CC(CNC1CCN(Cc3ccccn3)CC1)CN2 (configuration not stated)
Reply: 3.67

* * *

Measured cytotoxicity at 10 µM accompanies every entry in the list below.
Experiment: Toxicity liver stage against HepG2, at 10uM
Type: cell-based
Set-up: test concentration 10 uM, cell line HepG2-A16-CD81EGFP
Settings: human, HepG2-A16-CD81EGFP cells; read-out: INHIBITION
API: value field is a number in %; no unit string.

See these solved cases before continuing.
compound: CN(C)C(=O)[C@]12CCCN(CC3CC3)C[C@H]1CN(c1ccccn1)C2
unit of measurement: %
cytotoxicity at 10 µM: 3.68

compound: CSCCCN1CCCC1c1noc(C(C)C)n1 (stereo unspecified)
unit of measurement: %
cytotoxicity at 10 µM: -12.5

Query: Give its cytotoxicity at 10 µM value. Item: CCOc1cncc(N2CCN(c3ccccc3F)CC2)n1
Reply: -0.0195

Query: Give its cytotoxicity at 10 µM value. Item: Cc1cccc(CN2CCC(c3nnc(-c4scnc4C)o3)CC2)c1
Reply: -3.8

Query: Give its cytotoxicity at 10 µM value. Item: O=C(Nc1ccc(CCN2CCC(O)CC2)cc1)C1CCCOC1 (stereo unspecified)
Reply: -4.81

Query: Give its cytotoxicity at 10 µM value. Item: Cc1nnc(CN2CCC3(CCC(=O)N(C4CCC(O)CC4)C3)CC2)o1 (stereo unspecified)
Reply: -8.23

Query: Give its cytotoxicity at 10 µM value. Item: COc1coc(CN2CCCC(CCc3ccccc3F)C2)cc1=O (stereo unspecified)
Reply: -1.62

Query: Give its cytotoxicity at 10 µM value. Item: CCc1noc(CS(=O)(=O)Cc2ccccc2Cl)n1
Reply: -6.75

* * *

Experiment: Toxicity liver stage against HepG2, at 10uM
Assay type: cell-based
Set-up: test concentration 10 uM, cell line HepG2-A16-CD81EGFP
Settings: human, HepG2-A16-CD81EGFP cells; read-out: INHIBITION
Measured cytotoxicity at 10 µM accompanies every entry in the list below.
API: value field is a number in %; no unit string.

Query: Give its cytotoxicity at 10 µM value. Item: CN(C)S(=O)(=O)N1CCC(Oc2cccnn2)CC1
Reply: 3.05

Query: Give its cytotoxicity at 10 µM value. Item: CC(C(=O)Nc1ccc(N2CCCCC2)nc1)n1ccnc1 (centres undefined)
Reply: -29.8

Query: Give its cytotoxicity at 10 µM value. Item: COC(=O)c1cccc(C(=O)N2CCCCC2CCn2ccnc2C)c1 (centres undefined)
Reply: 14.5

Query: Give its cytotoxicity at 10 µM value. Item: Cc1ccc(C)c(CC(=O)NC2CCCS(=O)(=O)C2)c1 (centres undefined)
Reply: -7.52

Query: Give its cytotoxicity at 10 µM value. Item: CNC(=O)c1cccc(CNC2CCSc3c(Cl)cccc32)c1 (centres undefined)
Reply: 12.8

Query: Give its cytotoxicity at 10 µM value. Item: CN(C)S(=O)(=O)N1CCCC(c2cccc(Cc3ccc(Cl)cc3)n2)C1 (centres undefined)
Reply: 56

Query: Give its cytotoxicity at 10 µM value. Item: CC(C)n1cnnc1CN(C)C(=O)c1ccccc1-n1cncn1
Reply: -1.49

Query: Give its cytotoxicity at 10 µM value. Item: Cc1nc(N[C@H]2COC[C@@H]2N2CCCC2)c2cnn(C)c2n1
Reply: -1.42

Query: Give its cytotoxicity at 10 µM value. Item: Cn1cc(Cl)cc1C(=O)N1CCCN(Cc2cccs2)CC1
Reply: -5.82
